Source listed as paper PMC12136031.

In this section we review reported pEC50 values for a set of compounds.
# test-system: UniProt:P25101
# procedure-text: Safety47 Calcium Flux EDNRA
# assay-conditions: Agonist, read-out: RC50 (EC50)
pEC50: −log10 of the molar value.

- compound: "Cl.c1ccc2c(Nc3ccc4[nH]ccc4c3)nc(-c3ccncc3)nc2c1 [BC18630]"
  pEC50: "< 5.00"
- compound: "Cl.Fc1cc(Nc2nc(-c3ccncc3)nc3ncccc23)cc2cc[nH]c12 [BC18813]"
  pEC50: "< 5.00"

====

In this section we review reported pIC50 values for a set of compounds.
# test-system: ADRB2 (Homo sapiens, UniProt P07550)
# Sequence (P07550 whole entry): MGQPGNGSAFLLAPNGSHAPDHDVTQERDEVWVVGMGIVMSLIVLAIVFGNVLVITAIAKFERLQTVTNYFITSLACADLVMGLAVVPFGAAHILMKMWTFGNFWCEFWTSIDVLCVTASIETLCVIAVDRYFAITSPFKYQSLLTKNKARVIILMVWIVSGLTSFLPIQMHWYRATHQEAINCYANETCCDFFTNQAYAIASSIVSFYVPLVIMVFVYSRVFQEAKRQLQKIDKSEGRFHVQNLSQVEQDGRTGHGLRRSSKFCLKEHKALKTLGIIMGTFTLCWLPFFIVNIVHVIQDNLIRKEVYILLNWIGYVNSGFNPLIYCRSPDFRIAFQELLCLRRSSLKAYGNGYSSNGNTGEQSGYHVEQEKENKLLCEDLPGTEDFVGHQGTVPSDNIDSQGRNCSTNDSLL
# procedure-text: Safety47 cAMP ADRB2
# assay-conditions: Antagonist, read-out: RC50 (IC50)
pIC50: −log10 of the molar value.

- compound-structure: "Cl.Fc1cc(Nc2nc(-c3ccncc3)nc3ncccc23)cc2cc[nH]c12"
  pIC50: "< 5.00"
- compound-structure: "Cl.c1ccc2c(Nc3ccc4[nH]ccc4c3)nc(-c3ccncc3)nc2c1"
  pIC50: "< 5.00"

====

# test-system: ADORA2A (Homo sapiens, UniProt P29274)
# Sequence (P29274 whole entry): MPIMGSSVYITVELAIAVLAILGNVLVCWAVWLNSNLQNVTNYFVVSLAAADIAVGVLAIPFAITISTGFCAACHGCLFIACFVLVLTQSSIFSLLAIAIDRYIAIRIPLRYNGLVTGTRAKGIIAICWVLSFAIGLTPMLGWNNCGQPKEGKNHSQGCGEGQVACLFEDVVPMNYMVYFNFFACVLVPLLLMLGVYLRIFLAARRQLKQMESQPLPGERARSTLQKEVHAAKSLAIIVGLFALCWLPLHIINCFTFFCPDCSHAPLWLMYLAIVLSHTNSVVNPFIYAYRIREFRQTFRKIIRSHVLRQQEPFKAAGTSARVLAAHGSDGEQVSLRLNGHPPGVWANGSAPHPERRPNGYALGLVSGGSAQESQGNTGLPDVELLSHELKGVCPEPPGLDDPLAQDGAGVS
# procedure-text: Safety47 Calcium Flux ADORA2A
# assay-conditions: Agonist, read-out: RC50 (EC50)
In this section we review reported EC50 values for a set of molecules.

- compound-structure: "Cl.c1ccc2c(Nc3ccc4[nH]ccc4c3)nc(-c3ccncc3)nc2c1"
  test-system: "ADORA2A (Homo sapiens, UniProt P29274)"
  EC50: "> 10 µM"
- compound-structure: "Cl.Fc1cc(Nc2nc(-c3ccncc3)nc3ncccc23)cc2cc[nH]c12"
  test-system: "ADORA2A (Homo sapiens, UniProt P29274)"
  EC50: "> 10 µM"

====

# Tested on: GABAA
# procedure-text: Safety47 Ion Channel GABAA
# Type: cell-based
# assay-conditions: Blocker, read-out: RC50 (IC50)
In this section we review reported IC50 values for a set of molecules.
outcome-measure: IC50

- molecule: "Cl.c1ccc2c(Nc3ccc4[nH]ccc4c3)nc(-c3ccncc3)nc2c1 [BC18630]"
  outcome-measure: "IC50"
  measured-value: "> 10 µM"
- molecule: "Cl.Fc1cc(Nc2nc(-c3ccncc3)nc3ncccc23)cc2cc[nH]c12 [BC18813]"
  outcome-measure: "IC50"
  measured-value: "> 10 µM"

====

# test-system: GR (Homo sapiens)
# Sequence (P04150 whole entry): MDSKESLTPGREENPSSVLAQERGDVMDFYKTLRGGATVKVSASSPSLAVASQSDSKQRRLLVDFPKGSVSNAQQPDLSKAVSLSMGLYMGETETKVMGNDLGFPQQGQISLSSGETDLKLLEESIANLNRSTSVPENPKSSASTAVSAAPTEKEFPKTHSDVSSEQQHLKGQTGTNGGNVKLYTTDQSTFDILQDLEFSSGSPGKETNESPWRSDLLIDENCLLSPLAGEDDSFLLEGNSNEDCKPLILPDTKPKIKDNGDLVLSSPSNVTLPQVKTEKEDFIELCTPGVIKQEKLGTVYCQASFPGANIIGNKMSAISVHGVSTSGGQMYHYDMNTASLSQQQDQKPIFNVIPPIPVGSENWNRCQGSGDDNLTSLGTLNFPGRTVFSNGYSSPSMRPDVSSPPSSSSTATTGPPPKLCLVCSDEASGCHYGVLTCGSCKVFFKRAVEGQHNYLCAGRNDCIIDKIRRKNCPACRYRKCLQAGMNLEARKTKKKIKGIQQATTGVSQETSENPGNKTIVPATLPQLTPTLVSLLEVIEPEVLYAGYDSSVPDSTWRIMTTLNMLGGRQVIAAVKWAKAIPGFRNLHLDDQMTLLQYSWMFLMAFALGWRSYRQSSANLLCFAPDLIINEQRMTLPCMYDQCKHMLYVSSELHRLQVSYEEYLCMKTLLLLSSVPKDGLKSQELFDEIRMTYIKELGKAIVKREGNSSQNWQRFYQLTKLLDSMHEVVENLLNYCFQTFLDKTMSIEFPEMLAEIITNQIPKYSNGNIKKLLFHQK
# procedure-text: Safety47 NHR Protein Interaction GR
# assay-conditions: Agonist, read-out: RC50 (EC50)

- compound-structure: "Cl.c1ccc2c(Nc3ccc4[nH]ccc4c3)nc(-c3ccncc3)nc2c1"
  test-system: "GR (Homo sapiens)"
  EC50: "> 10 µM"
- compound-structure: "Cl.Fc1cc(Nc2nc(-c3ccncc3)nc3ncccc23)cc2cc[nH]c12"
  test-system: "GR (Homo sapiens)"
  EC50: "> 10 µM"

====

# test-system: ADRB1 (Homo sapiens)
# Sequence (P08588 whole entry): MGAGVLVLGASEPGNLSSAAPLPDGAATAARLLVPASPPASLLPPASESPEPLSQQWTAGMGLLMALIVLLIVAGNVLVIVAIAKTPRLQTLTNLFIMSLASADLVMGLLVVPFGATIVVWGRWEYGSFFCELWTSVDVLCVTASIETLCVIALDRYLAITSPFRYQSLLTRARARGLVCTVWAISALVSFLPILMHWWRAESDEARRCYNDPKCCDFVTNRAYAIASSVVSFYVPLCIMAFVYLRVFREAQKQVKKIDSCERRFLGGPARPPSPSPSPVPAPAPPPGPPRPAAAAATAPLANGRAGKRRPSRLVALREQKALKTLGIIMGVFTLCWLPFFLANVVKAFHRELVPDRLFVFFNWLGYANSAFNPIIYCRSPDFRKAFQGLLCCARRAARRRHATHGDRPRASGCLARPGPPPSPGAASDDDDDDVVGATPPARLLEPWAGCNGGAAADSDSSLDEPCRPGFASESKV
# procedure-text: Safety47 cAMP ADRB1
# assay-conditions: Antagonist, read-out: RC50 (IC50)
In this section we review reported IC50 values for a set of compounds.
outcome-measure: IC50

- compound: "Cl.c1ccc2c(Nc3ccc4[nH]ccc4c3)nc(-c3ccncc3)nc2c1 [BC18630]"
  measured-value: "> 10 µM"
- compound: "Cl.Fc1cc(Nc2nc(-c3ccncc3)nc3ncccc23)cc2cc[nH]c12 [BC18813]"
  measured-value: "> 10 µM"

====

// values below are pIC50; system is VEGFR2 (Homo sapiens, UniProt P35968)
Sequence (P35968 20-1356, species assumed): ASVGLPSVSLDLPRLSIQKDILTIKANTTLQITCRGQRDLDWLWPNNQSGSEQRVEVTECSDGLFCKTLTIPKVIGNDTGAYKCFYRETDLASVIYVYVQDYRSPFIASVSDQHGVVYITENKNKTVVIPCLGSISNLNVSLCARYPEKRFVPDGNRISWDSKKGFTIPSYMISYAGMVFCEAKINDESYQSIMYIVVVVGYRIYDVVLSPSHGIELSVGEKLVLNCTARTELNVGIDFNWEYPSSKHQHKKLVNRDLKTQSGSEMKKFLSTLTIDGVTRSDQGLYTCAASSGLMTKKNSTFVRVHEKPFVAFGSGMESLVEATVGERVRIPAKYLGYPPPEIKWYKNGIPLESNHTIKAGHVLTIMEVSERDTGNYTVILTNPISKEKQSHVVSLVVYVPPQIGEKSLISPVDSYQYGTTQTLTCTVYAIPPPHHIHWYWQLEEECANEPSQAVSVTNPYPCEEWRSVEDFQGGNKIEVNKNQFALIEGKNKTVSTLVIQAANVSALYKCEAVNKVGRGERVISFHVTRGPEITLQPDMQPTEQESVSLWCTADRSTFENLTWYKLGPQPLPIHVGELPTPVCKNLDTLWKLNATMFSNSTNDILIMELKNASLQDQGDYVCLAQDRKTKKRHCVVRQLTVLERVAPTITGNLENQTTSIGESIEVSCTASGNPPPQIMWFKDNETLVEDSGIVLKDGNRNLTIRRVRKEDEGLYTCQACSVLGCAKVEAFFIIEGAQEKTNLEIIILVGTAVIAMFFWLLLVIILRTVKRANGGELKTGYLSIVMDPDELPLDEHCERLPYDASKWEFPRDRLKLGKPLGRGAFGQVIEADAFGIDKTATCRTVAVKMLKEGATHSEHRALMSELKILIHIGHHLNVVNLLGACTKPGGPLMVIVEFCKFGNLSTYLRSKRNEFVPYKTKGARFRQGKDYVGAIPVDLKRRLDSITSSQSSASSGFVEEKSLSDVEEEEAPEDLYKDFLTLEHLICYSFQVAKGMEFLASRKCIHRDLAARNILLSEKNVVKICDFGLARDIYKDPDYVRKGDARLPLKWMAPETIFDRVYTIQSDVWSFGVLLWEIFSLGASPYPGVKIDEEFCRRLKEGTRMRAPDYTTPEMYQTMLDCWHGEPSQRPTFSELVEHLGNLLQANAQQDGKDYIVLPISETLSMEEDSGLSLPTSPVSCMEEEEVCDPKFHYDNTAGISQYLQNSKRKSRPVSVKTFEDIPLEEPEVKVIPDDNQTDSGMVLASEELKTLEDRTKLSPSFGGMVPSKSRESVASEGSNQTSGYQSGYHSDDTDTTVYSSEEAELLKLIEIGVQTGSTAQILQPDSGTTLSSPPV
pIC50: −log10 of the molar value.
outcome-measure: pIC50

- compound-structure: "Cl.c1ccc2c(Nc3ccc4[nH]ccc4c3)nc(-c3ccncc3)nc2c1"
  test-system: "VEGFR2 (Homo sapiens, UniProt P35968)"
  outcome-measure: "pIC50"
  measured-value: "< 5.00"
- compound-structure: "Cl.Fc1cc(Nc2nc(-c3ccncc3)nc3ncccc23)cc2cc[nH]c12"
  test-system: "VEGFR2 (Homo sapiens, UniProt P35968)"
  outcome-measure: "pIC50"
  measured-value: "< 5.00"

====

# test-system: DAT (Homo sapiens)
# procedure-text: Safety47 Transporter DAT
# assay-conditions: Blocker, read-out: RC50 (IC50)
In this section we review reported IC50 values for a set of compounds.

- compound-structure: "Cl.Fc1cc(Nc2nc(-c3ccncc3)nc3ncccc23)cc2cc[nH]c12"
  IC50: "> 10 µM"
- compound-structure: "Cl.c1ccc2c(Nc3ccc4[nH]ccc4c3)nc(-c3ccncc3)nc2c1"
  IC50: "> 10 µM"

====

# test-system: HRH1 (Homo sapiens, UniProt P35367)
# procedure-text: Safety47 Calcium Flux HRH1
# assay-conditions: Agonist, read-out: RC50 (EC50)
In this section we review reported EC50 values for a set of compounds.

- compound-structure: "Cl.c1ccc2c(Nc3ccc4[nH]ccc4c3)nc(-c3ccncc3)nc2c1"
  EC50: "> 10 µM"
- compound-structure: "Cl.Fc1cc(Nc2nc(-c3ccncc3)nc3ncccc23)cc2cc[nH]c12"
  EC50: "> 10 µM"

====

# test-system: OPRD1 (Homo sapiens, UniProt P41143)
# Sequence (P41143 whole entry, species assumed): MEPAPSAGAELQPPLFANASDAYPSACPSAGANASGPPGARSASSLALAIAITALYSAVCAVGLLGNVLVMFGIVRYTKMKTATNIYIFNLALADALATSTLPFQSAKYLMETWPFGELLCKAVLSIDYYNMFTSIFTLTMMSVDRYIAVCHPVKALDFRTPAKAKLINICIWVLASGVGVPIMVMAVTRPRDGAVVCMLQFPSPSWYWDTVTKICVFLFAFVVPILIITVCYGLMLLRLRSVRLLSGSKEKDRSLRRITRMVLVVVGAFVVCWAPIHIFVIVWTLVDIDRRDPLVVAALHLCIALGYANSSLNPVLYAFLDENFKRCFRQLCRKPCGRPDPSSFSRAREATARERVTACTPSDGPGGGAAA
# procedure-text: Safety47 cAMP OPRD1
# assay-conditions: Agonist, read-out: RC50 (EC50)
pEC50: −log10 of the molar value.
outcome-measure: pEC50

- compound-structure: "Cl.Fc1cc(Nc2nc(-c3ccncc3)nc3ncccc23)cc2cc[nH]c12"
  outcome-measure: "pEC50"
  measured-value: "< 5.00"
- compound-structure: "Cl.c1ccc2c(Nc3ccc4[nH]ccc4c3)nc(-c3ccncc3)nc2c1"
  outcome-measure: "pEC50"
  measured-value: "< 5.00"

====

# test-system: HRH2 (Homo sapiens, UniProt P25021)
# Sequence (P25021 whole entry): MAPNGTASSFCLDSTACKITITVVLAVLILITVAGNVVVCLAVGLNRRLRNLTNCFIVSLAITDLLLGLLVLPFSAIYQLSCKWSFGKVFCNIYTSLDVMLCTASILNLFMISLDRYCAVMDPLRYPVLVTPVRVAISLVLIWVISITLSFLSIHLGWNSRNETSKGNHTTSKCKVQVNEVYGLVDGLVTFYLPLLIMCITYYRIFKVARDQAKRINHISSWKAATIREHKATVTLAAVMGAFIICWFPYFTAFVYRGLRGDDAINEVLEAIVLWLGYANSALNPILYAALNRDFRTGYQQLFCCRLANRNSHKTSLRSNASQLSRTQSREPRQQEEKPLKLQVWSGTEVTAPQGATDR
# procedure-text: Safety47 cAMP HRH2
# assay-conditions: Agonist, read-out: RC50 (EC50)

- compound-structure: "Cl.c1ccc2c(Nc3ccc4[nH]ccc4c3)nc(-c3ccncc3)nc2c1"
  EC50: "> 10 µM"
- compound-structure: "Cl.Fc1cc(Nc2nc(-c3ccncc3)nc3ncccc23)cc2cc[nH]c12"
  EC50: "> 10 µM"

====

In this section we review reported IC50 values for a set of molecules.
# test-system: MAOA (Homo sapiens, UniProt P21397)
# Sequence (P21397 1-527): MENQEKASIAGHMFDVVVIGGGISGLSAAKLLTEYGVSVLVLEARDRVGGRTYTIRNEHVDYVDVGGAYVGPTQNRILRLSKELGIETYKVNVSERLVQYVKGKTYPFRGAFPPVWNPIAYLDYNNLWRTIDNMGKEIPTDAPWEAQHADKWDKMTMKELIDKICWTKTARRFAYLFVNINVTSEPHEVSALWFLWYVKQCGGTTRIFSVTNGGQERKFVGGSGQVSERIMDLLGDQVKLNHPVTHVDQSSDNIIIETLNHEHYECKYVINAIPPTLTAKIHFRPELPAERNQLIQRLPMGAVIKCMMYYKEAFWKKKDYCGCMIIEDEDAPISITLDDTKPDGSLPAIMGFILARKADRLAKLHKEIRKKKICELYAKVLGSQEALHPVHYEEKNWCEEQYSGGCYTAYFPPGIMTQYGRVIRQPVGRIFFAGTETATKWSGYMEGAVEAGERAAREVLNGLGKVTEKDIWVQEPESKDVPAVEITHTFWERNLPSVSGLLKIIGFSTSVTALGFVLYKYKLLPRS

- molecule: "Cl.Fc1cc(Nc2nc(-c3ccncc3)nc3ncccc23)cc2cc[nH]c12 [BC18813]"
  IC50: "> 10 µM"
- molecule: "Cl.c1ccc2c(Nc3ccc4[nH]ccc4c3)nc(-c3ccncc3)nc2c1 [BC18630]"
  IC50: "> 10 µM"

====

In this section we review reported IC50 values for a set of molecules.
# test-system: CHRM3 (Homo sapiens, UniProt P20309)
# Sequence (P20309 whole entry): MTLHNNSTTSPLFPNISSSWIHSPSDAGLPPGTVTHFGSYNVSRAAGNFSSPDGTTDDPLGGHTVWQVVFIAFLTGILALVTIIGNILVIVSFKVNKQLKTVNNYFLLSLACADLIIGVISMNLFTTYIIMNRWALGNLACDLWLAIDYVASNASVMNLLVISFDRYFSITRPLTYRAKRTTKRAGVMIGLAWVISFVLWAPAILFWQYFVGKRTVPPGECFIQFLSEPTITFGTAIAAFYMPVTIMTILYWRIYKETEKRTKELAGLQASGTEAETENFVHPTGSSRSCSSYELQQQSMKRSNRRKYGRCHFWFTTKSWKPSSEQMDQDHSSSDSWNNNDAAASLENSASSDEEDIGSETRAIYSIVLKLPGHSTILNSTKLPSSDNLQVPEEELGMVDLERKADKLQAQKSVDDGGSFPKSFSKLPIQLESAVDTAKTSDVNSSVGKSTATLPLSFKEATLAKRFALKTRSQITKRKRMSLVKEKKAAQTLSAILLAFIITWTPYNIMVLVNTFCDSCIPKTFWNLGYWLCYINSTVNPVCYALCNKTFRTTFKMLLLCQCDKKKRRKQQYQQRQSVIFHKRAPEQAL
# procedure-text: Safety47 Calcium Flux CHRM3
# assay-conditions: Antagonist, read-out: RC50 (IC50)

- compound-structure: "Cl.c1ccc2c(Nc3ccc4[nH]ccc4c3)nc(-c3ccncc3)nc2c1"
  IC50: "> 10 µM"
- compound-structure: "Cl.Fc1cc(Nc2nc(-c3ccncc3)nc3ncccc23)cc2cc[nH]c12"
  IC50: "> 10 µM"

====

# test-system: OPRD1 (Homo sapiens)
# procedure-text: Safety47 cAMP OPRD1
# assay-conditions: Antagonist, read-out: RC50 (IC50)
In this section we review reported IC50 values for a set of compounds.

- compound-structure: "Cl.Fc1cc(Nc2nc(-c3ccncc3)nc3ncccc23)cc2cc[nH]c12"
  IC50: "> 10 µM"
- compound-structure: "Cl.c1ccc2c(Nc3ccc4[nH]ccc4c3)nc(-c3ccncc3)nc2c1"
  IC50: "> 10 µM"
